Target: T1, RlpA-Δ32·MltF2 complex (MST) (P. aeruginosa PAO1, UniProt Q9X6V6;Q9HZY1, amine reactive RED-NHS dye)
T1 sequence 1: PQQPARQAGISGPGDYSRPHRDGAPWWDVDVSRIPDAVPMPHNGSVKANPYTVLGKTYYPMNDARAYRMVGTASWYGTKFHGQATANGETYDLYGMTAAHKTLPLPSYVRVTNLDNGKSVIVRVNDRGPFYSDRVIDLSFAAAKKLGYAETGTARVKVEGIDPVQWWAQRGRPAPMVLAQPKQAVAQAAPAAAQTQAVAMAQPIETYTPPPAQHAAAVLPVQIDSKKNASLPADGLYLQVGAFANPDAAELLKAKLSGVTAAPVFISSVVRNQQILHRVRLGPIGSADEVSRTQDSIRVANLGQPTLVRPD
T1 sequence 2: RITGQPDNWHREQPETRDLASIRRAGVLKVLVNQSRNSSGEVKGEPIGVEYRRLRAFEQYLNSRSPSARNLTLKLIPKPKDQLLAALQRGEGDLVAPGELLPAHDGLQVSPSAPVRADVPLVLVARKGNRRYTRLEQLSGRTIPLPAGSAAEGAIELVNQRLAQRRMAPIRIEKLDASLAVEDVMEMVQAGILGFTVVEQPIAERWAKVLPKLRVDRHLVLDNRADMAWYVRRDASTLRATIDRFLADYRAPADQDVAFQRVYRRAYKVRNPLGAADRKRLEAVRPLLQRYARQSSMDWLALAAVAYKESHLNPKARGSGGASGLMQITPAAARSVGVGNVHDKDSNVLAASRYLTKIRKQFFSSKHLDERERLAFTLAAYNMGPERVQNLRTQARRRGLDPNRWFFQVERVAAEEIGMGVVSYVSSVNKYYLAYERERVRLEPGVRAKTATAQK
Experiment: MST
Conditions: both partners purified
Task for the reader: assign each of the following binders its reported Kd.
Numbers only, in nM.

SltB2 (enzyme, P. aeruginosa PAO1, UniProt Q9I4G6 1-398, looked up) QPDASSFPSCLAGLQKKAQAQGISADSYERFTSGLQADLSVLDLLDAQPEFTTPLWDYLAGLVDEQRVSDGKAMLAQHDKLLDQVAARYGVDKYTVVAVWGVESDYGRIFGKRPLLTSLSTLSCYGRRQSFFQGEFLATLKLLQAGDIRDAGITGSWAGAFGHTQFMPSTYARIAVDFDGDGRRDLVGSVPDALGSTANYLKKAGWRTGQPWGYEVKVPADFPASLAGRGKRQPLSAWVARGVRRVDGQPLPGGDEKAAILLPAGAQGPAFLVYRNYDAIYSYNAAESYALAIALLSDRLRGGSGLVASWPTDDPGISRLERKQLQKALLARGYDIGEADGLIGTSTRKAIQAEQKRLGLTPADGRAGRKILEALKGAQP ... 150

Would you kindly look at the next entry?
Please look up its Kd: PA2854 (natural protein, source: E. coli, purified (Ni-NTA or Strep-Tactin)) LELQLPPPGEDVVGQVQVIKAKYEDTFADLGEQYNLGYSEMVAANPGVDPWLPGVGTEVIIPTRFVLPPGPREGVVINLAEYRLYYYPKGQNVVHTYPLGIGREGWGSPIANTRITAKTKDPAWYPPASIRAEHAADGDPLPTVVPPGPDNPLGPYKLTLGVPGYLIHGSNKKFGIGTRTSHGCFRMYNADVTHLFSMISVGTSVRIINEPYKFGVSNGKVYLEAHTPLNDHGDPSVVDKHTAVINTLLKRDDLAKRIQLNWDVVREVVASEDGVPVEIAQESAPAMTATVDSDPTQLTP
55

# credit: paper PMC9712689
